- assay-info: physchem
- measurement-context: octanol/buffer
attribute-measured: logP

>  <structure-as-smiles>
CNC(=O)OCCc1ccc(Cl)c(CN(C(=O)[C@H]2CNCC(=O)N2c2ccc(CCCOc3c(F)ccc(F)c3F)cc2)C2CC2)c1

>  <readout-value>
5.56

$$$$
>  <structure-as-smiles>
COC(=O)NCCc1ccc(Cl)c(CN(C(=O)[C@H]2CNCC(=O)N2c2ccc(OCCOc3c(Cl)cc(C)cc3Cl)cc2)C2CC2)c1

>  <readout-value>
5.67

$$$$
>  <structure-as-smiles>
CNC(=O)OCCc1ccc(Cl)c(CN(C(=O)[C@H]2CNCC(=O)N2c2ccc(OCCCOCc3ccccc3)cc2)C2CC2)c1

>  <readout-value>
4.94

$$$$
>  <structure-as-smiles>
CC(C)(C)OCC(=O)NCCc1ccc(Cl)c(CN(C(=O)[C@H]2CNCC(=O)N2c2ccc(OCCCOCc3ccccc3)cc2)C2CC2)c1

>  <readout-value>
5.66

$$$$
>  <structure-as-smiles>
Cc1cc(Cl)c(OCCOc2ccc(N3C(=O)CNC[C@@H]3C(=O)N(Cc3cc(CCNC4CC4)ccc3Cl)C3CC3)cc2)c(Cl)c1

>  <readout-value>
6.39

$$$$
>  <structure-as-smiles>
CNCCc1ccc(Cl)c(CN(C(=O)[C@H]2CNCC(=O)N2c2ccc(OCCCOCc3ccccc3OC)cc2)C2CC2)c1

>  <readout-value>
4.97

$$$$
>  <structure-as-smiles>
Cc1ccccc1Cc1c(C(=O)N2CCNCC2)c2ccccc2n1-c1ccsc1

>  <readout-value>
5.02

$$$$
>  <structure-as-smiles>
CNC(=O)Cc1ccc(Cl)c(CN(C(=O)[C@H]2CNCC(=O)N2c2ccc(OCCOc3c(Cl)cc(C)cc3Cl)cc2)C2CC2)c1

>  <readout-value>
5.26

$$$$
>  <structure-as-smiles>
O=C(CC(F)(F)F)NCCc1ccc(Cl)c(CN(C(=O)[C@H]2CNCC(=O)N2c2ccc(CCCOc3c(F)ccc(F)c3F)cc2)C2CC2)c1

>  <readout-value>
6

$$$$
>  <structure-as-smiles>
Cc1cc(Cl)c(OCCOc2ccc(N3C(=O)CNC[C@@H]3C(=O)N(Cc3ccc(Cl)cc3)C3CC3)cc2)c(Cl)c1

>  <readout-value>
5.83

$$$$
>  <structure-as-smiles>
Cc1cc(Cl)c(OCCOc2ccc(N3C(=O)CNC[C@@H]3C(=O)N(Cc3cc(CCNC4CC4)ccc3Cl)C3CC3)cn2)c(Cl)c1

>  <readout-value>
5.56

$$$$
>  <structure-as-smiles>
Cc1cc(Cl)c(OCCOc2ccc(N3C(=O)CNC[C@@H]3C(=O)N(Cc3cc(CNCCF)ccc3Cl)C3CC3)cn2)c(Cl)c1

>  <readout-value>
4.94

$$$$
>  <structure-as-smiles>
Cc1cc(Cl)c(OCCOc2ccc(N3C(=O)CNC[C@@H]3C(=O)N(Cc3cc(CNCC(F)F)ccc3Cl)C3CC3)cn2)c(Cl)c1

>  <readout-value>
5.24

$$$$
>  <structure-as-smiles>
CC(=O)NCc1ccc(Cl)c(CN(C(=O)[C@H]2CNCC(=O)N2c2ccc(CCCOc3c(F)ccc(F)c3F)cc2)C2CC2)c1

>  <readout-value>
5.19

$$$$
>  <structure-as-smiles>
CCNCc1ccc(Cl)c(CN(C(=O)[C@H]2CNCC(=O)N2c2ccc(OCCOc3c(Cl)cc(C)cc3Cl)cc2)C2CC2)c1

>  <readout-value>
5.99

$$$$
>  <structure-as-smiles>
CNC(=O)OCCc1ccc(Cl)c(CN(C(=O)[C@H]2CNCC(=O)N2c2ccc(CCCOc3cccc(Cl)c3)cc2)C2CC2)c1

>  <readout-value>
5.74

$$$$

Data provenance: ChEMBL document CHEMBL1944551
